Numbers sourced from patent US20210214461A1.

Target: pre-existing anti-scFv903 antibodies in human serum H96 (human)
Experiment: competition ADA bridging ELISA, 100 mcg/ml competitor
# % reduction in OD values compiled below

binder	% reduction in OD, %
scFv 903 (scFv) scFv: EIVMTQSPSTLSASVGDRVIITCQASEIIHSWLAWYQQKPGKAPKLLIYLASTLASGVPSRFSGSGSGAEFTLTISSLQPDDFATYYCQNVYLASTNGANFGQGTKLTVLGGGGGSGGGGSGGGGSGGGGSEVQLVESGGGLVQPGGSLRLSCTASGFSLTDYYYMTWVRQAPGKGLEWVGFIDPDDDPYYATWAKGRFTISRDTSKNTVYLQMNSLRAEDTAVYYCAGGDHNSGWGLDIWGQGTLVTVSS	-80.3
scFv 791 (scFv) scFv: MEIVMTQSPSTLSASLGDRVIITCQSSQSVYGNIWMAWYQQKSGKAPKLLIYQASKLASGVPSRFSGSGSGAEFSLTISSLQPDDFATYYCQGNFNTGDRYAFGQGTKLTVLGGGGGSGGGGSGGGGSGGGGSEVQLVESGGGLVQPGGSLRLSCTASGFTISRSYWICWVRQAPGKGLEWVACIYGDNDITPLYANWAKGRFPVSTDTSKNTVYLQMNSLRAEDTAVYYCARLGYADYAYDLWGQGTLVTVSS	-78.5
scFv 961 (scFv) scFv: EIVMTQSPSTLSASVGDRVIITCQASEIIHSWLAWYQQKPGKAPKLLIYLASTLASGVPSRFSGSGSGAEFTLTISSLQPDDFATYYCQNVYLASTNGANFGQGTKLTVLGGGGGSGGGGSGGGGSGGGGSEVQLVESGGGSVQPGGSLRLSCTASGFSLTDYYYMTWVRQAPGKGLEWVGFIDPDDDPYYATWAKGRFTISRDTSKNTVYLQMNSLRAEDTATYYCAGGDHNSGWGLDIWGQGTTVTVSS	-78
scFv105 (scFv) scFv: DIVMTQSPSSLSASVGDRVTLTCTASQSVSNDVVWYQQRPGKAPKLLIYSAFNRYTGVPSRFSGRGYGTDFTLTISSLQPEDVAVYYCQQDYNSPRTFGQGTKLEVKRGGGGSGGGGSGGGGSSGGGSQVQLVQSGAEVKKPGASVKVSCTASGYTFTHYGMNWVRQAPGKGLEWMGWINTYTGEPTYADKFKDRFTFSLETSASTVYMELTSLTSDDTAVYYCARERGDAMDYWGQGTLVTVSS	-29
